# measuredOn: Prostaglandin G/H synthase 2 (Homo sapiens)
# Sequence (P35354 whole entry): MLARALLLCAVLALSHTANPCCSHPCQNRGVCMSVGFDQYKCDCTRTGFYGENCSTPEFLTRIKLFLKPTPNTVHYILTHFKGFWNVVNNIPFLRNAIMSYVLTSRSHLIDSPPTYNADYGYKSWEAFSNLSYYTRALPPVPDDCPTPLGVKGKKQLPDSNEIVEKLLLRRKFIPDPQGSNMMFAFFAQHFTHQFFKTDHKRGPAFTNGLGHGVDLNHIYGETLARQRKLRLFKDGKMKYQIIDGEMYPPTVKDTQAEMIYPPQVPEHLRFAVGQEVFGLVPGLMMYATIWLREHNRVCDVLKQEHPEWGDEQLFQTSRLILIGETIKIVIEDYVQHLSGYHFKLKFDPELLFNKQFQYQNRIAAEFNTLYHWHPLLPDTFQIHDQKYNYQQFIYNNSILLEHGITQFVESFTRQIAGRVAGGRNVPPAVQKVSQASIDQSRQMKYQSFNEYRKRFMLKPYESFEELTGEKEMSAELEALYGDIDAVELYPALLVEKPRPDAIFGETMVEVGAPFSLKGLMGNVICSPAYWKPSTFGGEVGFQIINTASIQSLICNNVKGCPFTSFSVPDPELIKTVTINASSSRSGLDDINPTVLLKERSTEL
# experimentNotes: Inhibitory concentration for Cyclooxygenase-2 (Prostaglandin G/H synthase 2) in human whole blood
# Assay type: tissue-based
Please provide measured IC50 for the entries that follow.
Form field: result (number plus unit)

Below: 2 molecules and their reported IC50.
Cc1cc(=O)c(Oc2ccc(OC(F)(F)F)cc2)c(-c2ccc(S(C)(=O)=O)cc2)o1 2.45 µM
Cc1cc(=O)c(Oc2ccc(Cl)cc2Cl)c(-c2ccc(S(C)(=O)=O)cc2)o1 3.38 µM

Let us move to another entry and its IC50.
What the record says about CS(=O)(=O)c1ccc(-c2occ(Cl)c(=O)c2-c2ccc(-c3ccccc3)c(F)c2)cc1 : IC50 is 87.9 µM
